- Test system: MS2 coat protein
- assay.procedure: apparent KD of MS2 coat protein; designed switch direction (-1 OFF switch, 1 ON switch): -1; higher = weaker reporter binding
- run.parameters: Eterna round: R95; input ligand: FMN 200 uM
Measured apparent KD of MS2 coat protein of individual entries

[
  {
    "sequence": "UUUUUCGAACAAGCUUCGUACAUGAGGAUCACCCAUGUUUUUAGUUUUGUGUUGGUCAGUAUGGAAGUUCGUCUUAU [JR_SV3TOV1_Sub088] (puzzle: Sensor v3, turn-off variant 1)",
    "assay.system": "MS2 coat protein",
    "apparent KD of MS2 coat protein (nM)": 239
  },
  {
    "sequence": "UAUUAAACAUAGGAUAUCGAAUAUAUCAUUUAACGAGAAGGAUGAACAUGAGGAUCACCCAUGUGGUAUCAUGG [Mat - Exclusion 6 - JL Mod - D13] (puzzle: Exclusion 6)",
    "assay.system": "MS2 coat protein",
    "apparent KD of MS2 coat protein (nM)": 196
  },
  {
    "sequence": "UAAAAGCGAGGAUAUACAUGAGGAUCACCCAUGUGAGGCGAAAAGCCUCGGGCCAUCAGUAGAAGGUGCAAAAC [Arcecela] (puzzle: Exclusion 3)",
    "assay.system": "MS2 coat protein",
    "apparent KD of MS2 coat protein (nM)": 79
  },
  {
    "sequence": "AAAGAACAUGAGGAUCACCCAUGUGAGGAUAUGUAAGGAUAGGACCGAAGAAGCGAGAACAGAAGGCACAGAGG [JR_Exclu1_Sub069] (puzzle: Exclusion 1)",
    "assay.system": "MS2 coat protein",
    "apparent KD of MS2 coat protein (nM)": 35
  },
  {
    "sequence": "GUGUAGUCAGGAUAUACAUGAGGAUCACCCAUGUGAAUAAGAUAGAAUAAGAUAAAGUGUAGAAGGGACAGUGU [Excluse me!!! 4 - Jieux - Exclusion 3] (puzzle: Exclusion 3)",
    "assay.system": "MS2 coat protein",
    "apparent KD of MS2 coat protein (nM)": 33.8
  }
]

----------
Measured apparent KD of MS2 coat protein of individual entries
- Tested on: MS2 coat protein
- assay.procedure: apparent KD of MS2 coat protein, switch OFF state (with FMN for OFF switches, without FMN for ON switches); designed switch direction (-1 OFF switch, 1 ON switch): -1; higher = weaker reporter binding
- run.parameters: FMN input: 0 or 200 uM; Eterna round: R93 (includes R88 designs)

[
  {
    "sequence": "AAAAAACAUGAGGAUCACCCAUGUGAGGAUAUCGAAAAGUCAAAGAAAAAGACGAAAACGAGAAGGCACAAAAA [Mat - Mod of Eli 2]",
    "assay.system": "MS2 coat protein",
    "apparent KD of MS2 coat protein": "43.6 nM"
  },
  {
    "sequence": "AGUUGGCGAGGAUAUACAUGAGGAUCACCCAUGUAAAAUAAAUAAAAAGGGAAAAAGAGUAGAAGGCGCUGACA [73%, Moding Norbert Elias, 8]",
    "assay.system": "MS2 coat protein",
    "apparent KD of MS2 coat protein": "192 nM"
  },
  {
    "sequence": "ACUGAUACAGGAUAUACGUGAGUGGAAAAAGUGUUUCCACUACAUGAGGAUCACCCAUGUAGAAGGGUAUCAGA [Ex2 Design 180: Random 6]",
    "assay.system": "MS2 coat protein",
    "apparent KD of MS2 coat protein": "91.5 nM"
  }
]

----------
- Test system: MS2 coat protein
- assay.procedure: apparent KD of MS2 coat protein; designed switch direction (-1 OFF switch, 1 ON switch): -1; higher = weaker reporter binding
- run.parameters: Eterna round: R95; input ligand: microRNA oligo, concentration not stated
Measured apparent KD of MS2 coat protein of individual entries

[
  {
    "sequence": "UAUUAAACAUAGGAUAUCGAAUAUAUCAUUUAACGAGAAGGAUGAACAUGAGGAUCACCCAUGUGGUAUCAUGG [Mat - Exclusion 6 - JL Mod - D13] (puzzle: Exclusion 6)",
    "assay.system": "MS2 coat protein",
    "unit.descriptor": "nM",
    "apparent KD of MS2 coat protein": 269
  },
  {
    "sequence": "UUUAAUUUUUUUUUUUUACAAGCUUUUUGCUCGUCUUAUACAUGAGGAUCACCCAUGUGGGUGAGAAGUAAAUUAUC [JMF 48] (puzzle: Sensor v3, turn-off variant 2)",
    "assay.system": "MS2 coat protein",
    "unit.descriptor": "nM",
    "apparent KD of MS2 coat protein": 14.6
  },
  {
    "sequence": "AAAGAACAUGAGGAUCACCCAUGUGAGGAUAUGUAAGGAUAGGACCGAAGAAGCGAGAACAGAAGGCACAGAGG [JR_Exclu1_Sub069] (puzzle: Exclusion 1)",
    "assay.system": "MS2 coat protein",
    "unit.descriptor": "nM",
    "apparent KD of MS2 coat protein": 23.4
  },
  {
    "sequence": "CUUAGCCUAAAAUCACGCAAGCUUUCUGCUUGUCUUAAGACAUGAGGAUCACCCAUGUCCGGGCUGAACUUAUGGAA [Inve] (puzzle: Sensor v3, turn-off variant 2)",
    "assay.system": "MS2 coat protein",
    "unit.descriptor": "nM",
    "apparent KD of MS2 coat protein": 22.5
  },
  {
    "sequence": "AGAAAUGCCCAUGGCCACAAGCUUUUUGCUUGUCUUACUACAUGAGGAUCACCCAUGUACCAUGGGCUCCUGAUAAU [Anxemaes] (puzzle: Sensor v3, turn-off variant 2)",
    "assay.system": "MS2 coat protein",
    "unit.descriptor": "nM",
    "apparent KD of MS2 coat protein": 9.75
  },
  {
    "sequence": "AGUAGUAGUAUCCGAUCCUACAUGAGGAUCACCCAUGUAGCUAGACGUGCACGCGAUGCUCGUCGGACUACCAGAUG [salish99_TOv1_r3_043] (puzzle: Sensor v3, turn-off variant 1)",
    "assay.system": "MS2 coat protein",
    "unit.descriptor": "nM",
    "apparent KD of MS2 coat protein": 46.9
  },
  {
    "sequence": "GGAUCUUGGGUCAGGAUAUGCUGAUAUUUUUGUCAGCAGAAGGGACAUGAGGAUCACCCAUGUGCUUGGUUUUG [Magic-16] (puzzle: Brourd's mod of Exclusion 4)",
    "assay.system": "MS2 coat protein",
    "unit.descriptor": "nM",
    "apparent KD of MS2 coat protein": 12.6
  },
  {
    "sequence": "AGAAAUGCCCAUGGCCGCAAGCUUUUUGCUUGUCUUACCACAUGAGGAUCACCCAUGUGACAUGGGCUCCUGAUAAU [Bivequ] (puzzle: Sensor v3, turn-off variant 2)",
    "assay.system": "MS2 coat protein",
    "unit.descriptor": "nM",
    "apparent KD of MS2 coat protein": 10.7
  },
  {
    "sequence": "AAUAACAGAGGAUAUACUGUUUUAUGUAUUUAUUAUUUUAAACAUGAGGAUCACCCAUGUAGAAGGCUGAAUAA [JMF 12] (puzzle: Exclusion 2)",
    "assay.system": "MS2 coat protein",
    "unit.descriptor": "nM",
    "apparent KD of MS2 coat protein": 19.1
  },
  {
    "sequence": "UAAUACAAGUAGAGAUUCUACAUGAGGAUCACCCAUGUGCUCGUCUUAUAAAGUACUAUCACGAAAGUGAUAGUACU [Mat - Sensor v3 - turn-off var 1 - Eli Mod - D98] (puzzle: Sensor v3, turn-off variant 1)",
    "assay.system": "MS2 coat protein",
    "unit.descriptor": "nM",
    "apparent KD of MS2 coat protein": 192
  }
]

----------
- Tested on: MS2 coat protein
- assay.procedure: apparent KD of MS2 coat protein, switch OFF state (with FMN for OFF switches, without FMN for ON switches); designed switch direction (-1 OFF switch, 1 ON switch): -1; higher = weaker reporter binding
- run.parameters: FMN input: 0 or 200 uM; Eterna round: R93 (includes R88 designs)

[
  {
    "sequence": "AAAAAACAUGAGGAUCACCCAUGUCAGGAUAUCGAAAGAAAAAAAAAGAAAAAAAAAACGAGAAGGGACAAAAA [Amethyst 28]",
    "apparent KD of MS2 coat protein (nM)": 30.3
  },
  {
    "sequence": "AAGAAGUAAGGAUAUGCUGCUCGUCACAAAAGUGAUGAGUAGCAGAAGGUACAUGAGGAUCACCCAUGUUAAGA [JL eternac mod 4]",
    "apparent KD of MS2 coat protein (nM)": 20.6
  },
  {
    "sequence": "AAAAAGUCAGGAUAUACAUGAGGAUCACCCAUGUAAAAAAAAGGGAAAAAAAAAAAGGGUAGAAGGGACGAAAA [Exclusion 3]",
    "apparent KD of MS2 coat protein (nM)": 28.8
  },
  {
    "sequence": "AAAUGAUGAGGAUAUACAUGAGGAUCACCCAUGUGUAAAAAUAAAUACACAAAAGAAAGUAGAAGGCAUCAAAG [Mat - Exclusion 3 - Mayanna mod - D119]",
    "apparent KD of MS2 coat protein (nM)": 88.6
  },
  {
    "sequence": "ACUAAUGAAGGAUAUACAAACAAAAAAAAAACAAAAAAAAAACAUGAGGAUCACCCAUGUAGAAGGUCAAAAAU [JR_Exc002_Sub1201]",
    "apparent KD of MS2 coat protein (nM)": 20
  },
  {
    "sequence": "ACUGAUACAGGAUAUACAUGAGUGAAAAAAGUAAAUCCACUACAUGAGGAUCACCCAUGUAGAAGGGUAUCAGA [Ex2 Design 179: Random 5B]",
    "apparent KD of MS2 coat protein (nM)": 42.7
  },
  {
    "sequence": "AGCUAGUCAGGAUAUACAAACAUGUCAAAAGACGUGAAAAGACAUGAGGAUCACCCAUGUAGAAGGGACUAGCA [Mat - Exclusion 2 - JL mod - D14]",
    "apparent KD of MS2 coat protein (nM)": 90.5
  },
  {
    "sequence": "AAAGUGUGAGGAUAUGUCAAAGGACACGAAAGUGACAAAGGACAGAAGGUACAUGAGGAUCACCCAUGUAAAAA [milkweed 18]",
    "apparent KD of MS2 coat protein (nM)": 20.6
  },
  {
    "sequence": "GAGAAGUUAGGAUAUGCGGAGGGAAGGAAGGAAAGGGAAGGGCAGAAGGAACAUGAGGAUCACCCAUGUAAGAG [salish99-ex4-02]",
    "apparent KD of MS2 coat protein (nM)": 25.3
  },
  {
    "sequence": "AAAAGUACAGGAUAUACAUGAGGAUCACCCAUGUAGAAAGGAAGUGUAAAAAAAAAGUGUAGAAGGGUGCAUGA [MS2 Riboswitches On Chip Exclusion 3 wbt1]",
    "apparent KD of MS2 coat protein (nM)": 21.2
  },
  {
    "sequence": "AAGAACAAAGGAUAUACAAGGAAGAAAGAAAAGAAAAGAAAACAUGAGGAUCACCCAUGUAGAAGGUUGUAGAA [EteRNA is fun!]",
    "apparent KD of MS2 coat protein (nM)": 20.7
  },
  {
    "sequence": "AAGAAGAGAGGAUAUACAAAAUAAAAGAAAAGAAAGAAAGAACAUGAGGAUCACCCAUGUAGAAGGCUCAAGAA [Hotepibre Qemau Siharnedjheritef]",
    "apparent KD of MS2 coat protein (nM)": 28.4
  },
  {
    "sequence": "AAGAAUCGAGGAUAUACAUGAGGAUCACCCAUGUAAAAGAAAGAAGGGAAAGAGAAAAGUAGAAGGCGAAAGAA [Menkheperre Nekau I]",
    "apparent KD of MS2 coat protein (nM)": 27.7
  }
]
